experiment: NCI Yeast Anticancer Drug Screen. Data for the cln2 rad14 strain (AID 165);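 note: 0% = growth equal to vehicle treated cultures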; settings: S. cerevisiae cln2 rad14 strain, at 50.0 µM, stronger effect = higher value
Compounds without any hit were thinned out: in the full panel of roughly 79,000, 15% have a hit.
OBSERVABLE: growth inhibition (%)
# value in %; strip the unit string

1) CCOC(=O)C(O)(NC(=O)c1ccc(F)cc1)C(F)(F)F (configuration not stated): 17.1

**Query** What does the data say about its growth inhibition? Entry: Cc1ccc(Cc2cc(=O)[nH]c(=O)[nH]2)cc1
**Result** -76.5

**Query** Same question for CSc1ccc(NC(=O)Nc2cc(Cl)c(Cl)cc2C)cc1 please.
**Result** -1.95

**Query** Same question for CCOC(=O)C1CCN(S(=O)(=O)c2ccccc2)CC1 please.
**Result** -38.1

**Query** Same question for CO[C@H]1CC2CC1C1C3=C(NC21)C1(O)C[C@H]2CN(CC3)C1C[C@@H]2C(C)CO (some centres not stated) please.
**Result** -0.15

**Query** Same question for COc1cc(C=Nc2ccc3c(c2)OCO3)ccc1OC(=O)c1ccccc1 please.
**Result** 8.25

**Query** Same question for O=S(=O)(O)c1ccc[n+]([O-])c1 please.
**Result** 39.5
